Values were extracted from paper PMC11483378.

So I've got a bunch of molecules here, and I need their pKi values.
In textbook form, pKi equals minus log to base ten of the concentration in mol/L.

Incoming: Checklist item: pKi tested on UniProtKB P29804, entry COC(=O)CCCc1cn(Cc2cnc(C)nc2N)nn1 [15a] , value?
Outgoing: 6.85

Incoming: Checklist item: pKi tested on UniProtKB P29804, entry Cc1ncc(Cn2cc(CCC(C(=O)[O-])C(=O)[O-])nn2)c(N)n1.[K+].[K+] [14a] , value?
Outgoing: 7.51

Incoming: Checklist item: pKi tested on UniProtKB P29804, entry Cc1ncc(Cn2cc(CCCCC(=O)[O-])nn2)c(N)n1.[K+] [16b] , value?
Outgoing: 7.11

Incoming: Checklist item: pKi tested on UniProtKB P29804, entry COC(=O)C(CCc1cn(Cc2cnc(C)nc2N)nn1)C(=O)OC [13a] , value?
Outgoing: 7.02

Incoming: Checklist item: pKi tested on UniProtKB P29804, entry COC(=O)C(CCCc1cn(Cc2cnc(C)nc2N)nn1)C(=O)OC [13b] , value?
Outgoing: 7.24

Incoming: Checklist item: pKi tested on UniProtKB P29804, entry Cc1ncc(Cn2cc(CCCC(=O)[O-])nn2)c(N)n1.[K+] [16a] , value?
Outgoing: 7.03

Incoming: Checklist item: pKi tested on UniProtKB P29804, entry Cc1ncc(Cn2cc(CCCC(C(=O)[O-])C(=O)[O-])nn2)c(N)n1.[K+].[K+] [14b] , value?
Outgoing: 7.68

Incoming: Checklist item: pKi tested on UniProtKB P29804, entry COC(=O)CCCCc1cn(Cc2cnc(C)nc2N)nn1 [15b] , value?
Outgoing: 6.96
